SYSTEM_NAME: VEGFR-2 (Homo sapiens, UniProt P35968)
Construct: endogenous in cells; host or cells: HCT116, PaCa2, MCF7 (human cancer cell lines, ATCC origin)
Sequence (P35968 20-1356): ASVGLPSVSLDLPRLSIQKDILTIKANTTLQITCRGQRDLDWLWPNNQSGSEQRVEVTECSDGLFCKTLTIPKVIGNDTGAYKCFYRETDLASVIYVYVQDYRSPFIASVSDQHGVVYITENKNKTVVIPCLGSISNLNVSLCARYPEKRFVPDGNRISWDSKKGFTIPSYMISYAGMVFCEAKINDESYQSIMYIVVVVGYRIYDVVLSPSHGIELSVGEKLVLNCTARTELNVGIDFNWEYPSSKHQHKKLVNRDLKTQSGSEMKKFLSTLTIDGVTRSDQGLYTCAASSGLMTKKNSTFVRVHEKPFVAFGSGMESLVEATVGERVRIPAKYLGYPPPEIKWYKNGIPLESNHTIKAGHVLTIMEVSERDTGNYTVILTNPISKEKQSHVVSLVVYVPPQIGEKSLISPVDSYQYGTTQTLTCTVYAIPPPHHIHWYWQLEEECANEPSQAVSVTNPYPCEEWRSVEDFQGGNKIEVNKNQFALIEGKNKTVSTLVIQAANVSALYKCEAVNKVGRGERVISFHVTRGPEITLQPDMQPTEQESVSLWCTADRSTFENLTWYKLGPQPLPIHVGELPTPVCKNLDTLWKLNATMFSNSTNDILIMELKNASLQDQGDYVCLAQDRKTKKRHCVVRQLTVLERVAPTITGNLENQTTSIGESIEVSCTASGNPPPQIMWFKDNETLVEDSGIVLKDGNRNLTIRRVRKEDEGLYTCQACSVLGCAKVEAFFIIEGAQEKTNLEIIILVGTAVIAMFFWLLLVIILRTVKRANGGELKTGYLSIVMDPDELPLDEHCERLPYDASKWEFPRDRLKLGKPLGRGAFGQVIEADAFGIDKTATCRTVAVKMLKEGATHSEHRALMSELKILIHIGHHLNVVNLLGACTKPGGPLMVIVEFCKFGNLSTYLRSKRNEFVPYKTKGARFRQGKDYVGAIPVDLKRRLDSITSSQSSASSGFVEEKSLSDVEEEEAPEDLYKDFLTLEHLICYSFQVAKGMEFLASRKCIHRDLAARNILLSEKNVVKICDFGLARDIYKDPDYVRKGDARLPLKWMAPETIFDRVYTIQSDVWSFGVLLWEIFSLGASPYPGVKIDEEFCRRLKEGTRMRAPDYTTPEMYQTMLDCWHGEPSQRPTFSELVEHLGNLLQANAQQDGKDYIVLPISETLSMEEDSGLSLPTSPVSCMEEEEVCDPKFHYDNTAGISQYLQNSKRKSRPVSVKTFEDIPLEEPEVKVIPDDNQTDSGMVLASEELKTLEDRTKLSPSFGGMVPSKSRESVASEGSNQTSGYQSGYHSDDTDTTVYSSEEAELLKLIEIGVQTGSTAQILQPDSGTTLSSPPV
TEST_SUMMARY: cell-based
Format: cell-based
EXPERIMENTAL_SETUP: MCF7
METRIC_NAME: inhibition at 10 µM (%)

{"COMPOUND": "CCOP(=O)(OCC)N1C/C(=C\\c2ccc(C)cc2)C(=O)C2(C1)C(c1ccc(C)cc1)CN(C)C21C(=O)Nc2ccc(Cl)cc21 (stereo not shown) [Compound 17o]", "READING": 85}
{"COMPOUND": "CCOP(=O)(OCC)N1C/C(=C\\c2ccc(F)cc2)C(=O)C2(C1)C(c1ccc(F)cc1)CN(C)C21C(=O)Nc2ccc(C)cc21 (stereo not shown) [Compound 17g]", "READING": 75}
{"COMPOUND": "CCOP(=O)(OCC)N1C/C(=C\\c2ccc(F)cc2)C(=O)C2(C1)C(c1ccc(F)cc1)CN(C)C21C(=O)Nc2ccccc21 (stereo not shown) [Compound 17e]", "READING": 55}
{"COMPOUND": "CCOP(=O)(OCC)N1C/C(=C\\c2ccc(C)cc2)C(=O)C2(C1)C(c1ccc(C)cc1)CN(C)C21C(=O)Nc2ccc(F)cc21 (stereo not shown) [Compound 17n]", "READING": 66.9}
{"COMPOUND": "CCOP(=O)(OCC)N1C/C(=C\\c2ccc(F)cc2)C(=O)C2(C1)C(c1ccc(F)cc1)CN(C)C21C(=O)Nc2ccc(Cl)cc21 (stereo not shown) [Compound 17f]", "READING": 75.6}
{"COMPOUND": "CCOP(=O)(OCC)N1C/C(=C\\c2cccs2)C(=O)C2(C1)C(c1cccs1)CN(C)C21C(=O)Nc2ccc(C)cc21 (stereo not shown) [Compound 17t]", "READING": 62.6}
{"COMPOUND": "CCOP(=O)(OCC)N1C/C(=C\\c2ccc(Br)cc2)C(=O)C2(C1)C(c1ccc(Br)cc1)CN(C)C21C(=O)Nc2ccccc21 (stereo not shown) [Compound 17l]", "READING": 71.6}
